pIC50 values for the compounds below.
Molecular target: CYP2C9 (Homo sapiens, UniProt P11712)
Construct: purchased Invitrogen Corporation
Sequence (P11712 whole entry): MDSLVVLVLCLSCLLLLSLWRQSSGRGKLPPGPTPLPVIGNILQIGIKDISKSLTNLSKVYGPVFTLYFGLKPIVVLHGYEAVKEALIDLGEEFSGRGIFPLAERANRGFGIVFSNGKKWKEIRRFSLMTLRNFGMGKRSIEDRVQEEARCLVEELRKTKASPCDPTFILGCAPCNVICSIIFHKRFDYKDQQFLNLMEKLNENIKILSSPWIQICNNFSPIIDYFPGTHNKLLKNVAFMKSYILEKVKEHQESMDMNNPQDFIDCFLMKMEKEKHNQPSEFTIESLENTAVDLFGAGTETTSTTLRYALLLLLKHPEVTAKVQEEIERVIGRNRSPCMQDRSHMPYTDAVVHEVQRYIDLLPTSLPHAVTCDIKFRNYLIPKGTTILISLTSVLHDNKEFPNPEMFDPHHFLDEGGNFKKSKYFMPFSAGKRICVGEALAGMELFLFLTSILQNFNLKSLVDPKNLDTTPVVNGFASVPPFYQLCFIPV
Assay: Vivid CYP2C9 red fluorescent assay
Assay type: in vitro ADME
Details: cDNA-expressed enzyme, Vivid red substrate 2 µM; maximum concentration 50 µM; read-out: IC50 CYP2C9 red
pIC50: −log10 of the molar value.
MEASUREMENT_LABEL: pIC50

>  <COMPOUND>
CC(C)=CCC[C@](C)(O[C@@H]1O[C@H](CO[C@@H]2OC[C@@H](O)[C@H](O)[C@H]2O)[C@@H](O)[C@H](O)[C@H]1O)[C@H]1CC[C@]2(C)[C@@H]1[C@H](O)C[C@@H]1[C@@]3(C)CC[C@H](O[C@@H]4O[C@H](CO)[C@@H](O)[C@H](O)[C@H]4O[C@@H]4O[C@H](CO)[C@@H](O)[C@H](O)[C@H]4O)C(C)(C)[C@@H]3CC[C@]12C [Rb3]

>  <MEASUREMENT_LABEL>
pIC50

>  <EXPERIMENTAL_RESULT>
< 4.30

$$$$
>  <COMPOUND>
CC(C)=CCC[C@](C)(O[C@@H]1O[C@H](CO)[C@@H](O)[C@H](O)[C@H]1O)[C@H]1CC[C@]2(C)[C@@H]1[C@H](O)C[C@@H]1[C@@]3(C)CC[C@H](O[C@@H]4O[C@H](CO)[C@@H](O)[C@H](O)[C@H]4O[C@@H]4O[C@H](CO)[C@@H](O)[C@H](O)[C@H]4O)C(C)(C)[C@@H]3CC[C@]12C [Rd]

>  <MEASUREMENT_LABEL>
pIC50

>  <EXPERIMENTAL_RESULT>
< 4.30

$$$$

----------
inhibition at 30 min, 50 µM values for the molecules below.
Molecular target: CYP2D6 (Homo sapiens)
Sequence (P10635 whole entry): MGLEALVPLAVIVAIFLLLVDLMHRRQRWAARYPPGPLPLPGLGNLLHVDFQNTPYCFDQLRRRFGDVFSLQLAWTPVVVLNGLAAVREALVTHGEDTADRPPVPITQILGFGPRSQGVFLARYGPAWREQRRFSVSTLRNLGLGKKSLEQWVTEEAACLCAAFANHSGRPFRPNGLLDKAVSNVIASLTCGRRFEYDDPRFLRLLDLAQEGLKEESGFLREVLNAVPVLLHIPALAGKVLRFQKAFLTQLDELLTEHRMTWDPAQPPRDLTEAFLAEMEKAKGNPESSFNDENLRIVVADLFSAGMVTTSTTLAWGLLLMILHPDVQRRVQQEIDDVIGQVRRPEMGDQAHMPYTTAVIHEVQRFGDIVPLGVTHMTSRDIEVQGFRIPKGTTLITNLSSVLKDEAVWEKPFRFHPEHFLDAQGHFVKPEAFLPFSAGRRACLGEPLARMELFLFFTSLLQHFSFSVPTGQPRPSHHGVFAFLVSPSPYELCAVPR
Assay: Vivid CYP2D6 blue fluorescent assay
Conditions: human, recombinant (cDNA-expressed) CYP2D6 BACULOSOMES, probe Vivid blue substrate 10 µM

>  <MOLECULE>
CC(C)=CCC[C@](C)(O)[C@H]1CC[C@]2(C)[C@@H]1[C@H](O)C[C@@H]1[C@@]3(C)CC[C@H](O)C(C)(C)[C@@H]3[C@@H](O)C[C@]12C [PPT, protopanaxatriol]

>  <STUDY_TARGET>
CYP2D6 (Homo sapiens)

>  <UNIT_LABEL>
%

>  <inhibition at 30 min, 50 µM>
18.9

$$$$
>  <MOLECULE>
CC(C)=CCC[C@@](C)(O)[C@H]1CC[C@]2(C)[C@@H]1[C@H](O)C[C@@H]1[C@@]3(C)CC[C@H](O)C(C)(C)[C@@H]3CC[C@]12C [20(R)-PPD]

>  <STUDY_TARGET>
CYP2D6 (Homo sapiens)

>  <UNIT_LABEL>
%

>  <inhibition at 30 min, 50 µM>
34.9

$$$$
>  <MOLECULE>
CC(C)=CCC[C@](C)(O)[C@H]1CC[C@]2(C)[C@@H]1[C@H](O)C[C@@H]1[C@@]3(C)CC[C@H](O)C(C)(C)[C@@H]3CC[C@]12C [PPD, protopanaxadiol]

>  <STUDY_TARGET>
CYP2D6 (Homo sapiens)

>  <UNIT_LABEL>
%

>  <inhibition at 30 min, 50 µM>
25.9

$$$$
>  <MOLECULE>
CC(C)=CCC[C@](C)(O[C@@H]1O[C@H](CO)[C@@H](O)[C@H](O)[C@H]1O)[C@H]1CC[C@]2(C)[C@@H]1[C@H](O)C[C@@H]1[C@@]3(C)CC[C@H](O)C(C)(C)[C@@H]3[C@@H](O[C@@H]3O[C@H](CO)[C@@H](O)[C@H](O)[C@H]3O)C[C@]12C [Rg1]

>  <STUDY_TARGET>
CYP2D6 (Homo sapiens)

>  <UNIT_LABEL>
%

>  <inhibition at 30 min, 50 µM>
17.7

$$$$
>  <MOLECULE>
COC(C)(C)CCC[C@](C)(O)[C@H]1CC[C@]2(C)[C@@H]1[C@H](O)C[C@@H]1[C@@]3(C)CC[C@H](O)C(C)(C)[C@@H]3CC[C@]12C [25-OCH3-PPD]

>  <STUDY_TARGET>
CYP2D6 (Homo sapiens)

>  <UNIT_LABEL>
%

>  <inhibition at 30 min, 50 µM>
12.6

$$$$

----------
Biological target: CYP2C9 (Homo sapiens)
Construct: purchased Invitrogen Corporation
Assay: Vivid CYP2C9 red fluorescent assay
Format: in vitro ADME
Conditions: cDNA-expressed enzyme, Vivid red substrate 2 µM; maximum concentration 50 µM; read-out: IC50 CYP2C9 red
pIC50: −log10 of the molar value.

>  <COMPOUND>
CC(C)=CCC[C@](C)(O[C@@H]1O[C@H](CO[C@@H]2O[C@H](CO)[C@@H](O)[C@H](O)[C@H]2O)[C@@H](O)[C@H](O)[C@H]1O)[C@H]1CC[C@]2(C)[C@@H]1[C@H](O)C[C@@H]1[C@@]3(C)CC[C@H](O[C@@H]4O[C@H](CO)[C@@H](O)[C@H](O)[C@H]4O[C@@H]4O[C@H](CO)[C@@H](O)[C@H](O)[C@H]4O)C(C)(C)[C@@H]3CC[C@]12C [Rb1]

>  <pIC50>
< 4.30

$$$$
>  <COMPOUND>
CC(C)(O)CCC[C@@](C)(O)[C@H]1CC[C@]2(C)[C@@H]1[C@H](O)C[C@@H]1[C@@]3(C)CC[C@H](O)C(C)(C)[C@@H]3[C@@H](O)C[C@]12C [20(R)-25-OH-PPT]

>  <pIC50>
5.07

$$$$
>  <COMPOUND>
CC(C)=CCC[C@](C)(O[C@@H]1O[C@H](CO)[C@@H](O)[C@H](O)[C@H]1O)[C@H]1CC[C@]2(C)[C@@H]1[C@H](O)C[C@@H]1[C@@]3(C)CC[C@H](O)C(C)(C)[C@@H]3[C@@H](O[C@@H]3O[C@H](CO)[C@@H](O)[C@H](O)[C@H]3O[C@@H]3O[C@@H](C)[C@H](O)[C@@H](O)[C@H]3O)C[C@]12C [Re]

>  <pIC50>
< 4.30

$$$$

----------
inhibition at 30 min, 50 µM values for the compounds below.
Molecular target: CYP2C19 (Homo sapiens, UniProt P33261)
Sequence (P33261 whole entry): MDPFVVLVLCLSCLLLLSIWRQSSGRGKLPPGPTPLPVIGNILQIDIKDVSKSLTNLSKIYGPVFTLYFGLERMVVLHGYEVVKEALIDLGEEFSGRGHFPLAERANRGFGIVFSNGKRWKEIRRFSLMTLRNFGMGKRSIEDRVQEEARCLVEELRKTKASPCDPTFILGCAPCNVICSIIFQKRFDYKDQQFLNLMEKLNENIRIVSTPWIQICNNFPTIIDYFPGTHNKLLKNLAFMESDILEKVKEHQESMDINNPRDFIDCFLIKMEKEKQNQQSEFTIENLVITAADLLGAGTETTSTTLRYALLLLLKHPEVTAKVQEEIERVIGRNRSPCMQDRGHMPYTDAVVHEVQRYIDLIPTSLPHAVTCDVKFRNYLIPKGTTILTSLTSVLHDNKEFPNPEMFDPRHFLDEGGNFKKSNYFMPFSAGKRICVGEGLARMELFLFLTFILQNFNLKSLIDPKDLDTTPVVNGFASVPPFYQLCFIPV
Assay: Vivid CYP2C19 blue fluorescent assay
Conditions: human, recombinant (cDNA-expressed) CYP2C19 BACULOSOMES, probe Vivid blue substrate 10 µM
MEASUREMENT_LABEL: inhibition at 30 min, 50 µM

>  <COMPOUND>
CC(C)=CCC[C@](C)(O[C@@H]1O[C@H](CO)[C@@H](O)[C@H](O)[C@H]1O)[C@H]1CC[C@]2(C)[C@@H]1[C@H](O)C[C@@H]1[C@@]3(C)CC[C@H](O)C(C)(C)[C@@H]3[C@@H](O[C@@H]3O[C@H](CO)[C@@H](O)[C@H](O)[C@H]3O)C[C@]12C [Rg1]

>  <EXPERIMENTAL_RESULT>
11.7%

$$$$
>  <COMPOUND>
CC(C)=CCC[C@](C)(O[C@@H]1O[C@H](CO)[C@@H](O)[C@H](O)[C@H]1O)[C@H]1CC[C@]2(C)[C@@H]1[C@H](O)C[C@@H]1[C@@]3(C)CC[C@H](O)C(C)(C)[C@@H]3[C@@H](O[C@@H]3O[C@H](CO)[C@@H](O)[C@H](O)[C@H]3O[C@@H]3O[C@@H](C)[C@H](O)[C@@H](O)[C@H]3O)C[C@]12C [Re]

>  <EXPERIMENTAL_RESULT>
8.8%

$$$$
>  <COMPOUND>
CC(C)=CCC[C@](C)(O[C@@H]1O[C@H](CO[C@@H]2OC[C@@H](O)[C@H](O)[C@H]2O)[C@@H](O)[C@H](O)[C@H]1O)[C@H]1CC[C@]2(C)[C@@H]1[C@H](O)C[C@@H]1[C@@]3(C)CC[C@H](O[C@@H]4O[C@H](CO)[C@@H](O)[C@H](O)[C@H]4O[C@@H]4O[C@H](CO)[C@@H](O)[C@H](O)[C@H]4O)C(C)(C)[C@@H]3CC[C@]12C [Rb3]

>  <EXPERIMENTAL_RESULT>
5%

$$$$
>  <COMPOUND>
CC(C)=CCC[C@](C)(O[C@@H]1O[C@H](CO)[C@@H](O)[C@H](O)[C@H]1O)[C@H]1CC[C@]2(C)[C@@H]1[C@H](O)C[C@@H]1[C@@]3(C)CC[C@H](O[C@@H]4O[C@H](CO)[C@@H](O)[C@H](O)[C@H]4O[C@@H]4O[C@H](CO)[C@@H](O)[C@H](O)[C@H]4O)C(C)(C)[C@@H]3CC[C@]12C [Rd]

>  <EXPERIMENTAL_RESULT>
27.7%

$$$$
>  <COMPOUND>
CC(C)=CCC[C@](C)(O[C@@H]1O[C@H](CO[C@@H]2O[C@H](CO)[C@@H](O)[C@H](O)[C@H]2O)[C@@H](O)[C@H](O)[C@H]1O)[C@H]1CC[C@]2(C)[C@@H]1[C@H](O)C[C@@H]1[C@@]3(C)CC[C@H](O[C@@H]4O[C@H](CO)[C@@H](O)[C@H](O)[C@H]4O[C@@H]4O[C@H](CO)[C@@H](O)[C@H](O)[C@H]4O)C(C)(C)[C@@H]3CC[C@]12C [Rb1]

>  <EXPERIMENTAL_RESULT>
20.6%

$$$$
